target: Mitogen-activated protein kinase 11 (Homo sapiens); further: in the data inactive means no Kd found up to 30 µM
Sequence (Q15759 whole entry): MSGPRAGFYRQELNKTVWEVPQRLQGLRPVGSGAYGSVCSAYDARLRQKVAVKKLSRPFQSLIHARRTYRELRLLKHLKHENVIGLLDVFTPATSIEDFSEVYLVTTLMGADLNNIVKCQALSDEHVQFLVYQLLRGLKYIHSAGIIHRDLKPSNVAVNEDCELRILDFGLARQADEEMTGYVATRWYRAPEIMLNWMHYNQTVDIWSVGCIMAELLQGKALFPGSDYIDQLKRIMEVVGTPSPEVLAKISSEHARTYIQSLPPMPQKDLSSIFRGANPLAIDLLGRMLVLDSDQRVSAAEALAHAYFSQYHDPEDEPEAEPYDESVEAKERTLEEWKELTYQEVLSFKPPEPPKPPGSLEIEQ
The source made the active and inactive calls.
READOUT NAME: Kd

Query: Entry COC(=O)N[C@@H](C)CNc1nccc(-c2cn(C(C)C)nc2-c2cc(Cl)cc(NS(C)(=O)=O)c2F)n1 has what Kd?
Response: > 30 µM (inactive)

New cases:
Query: For the compound shown here, CO[C@H]1C[C@@H]2CC[C@@H](C)[C@@](O)(O2)C(=O)C(=O)N2CCCC[C@H]2C(=O)O[C@H]([C@H](C)C[C@@H]2CC[C@@H](OCCO)[C@H](OC)C2)CC(=O)[C@H](C)/C=C(\C)[C@@H](O)[C@@H](OC)C(=O)[C@H](C)C[C@H](C)/C=C/C=C/C=C/1C , give the reported Kd.
Response: > 30 µM (inactive)

Query: Can you share its Kd? I mean this compound: C[C@@H](c1ccc2nccn2c1)n1nnc2ncc(-c3cnn(C)c3)nc21
Response: > 30 µM (inactive)
